The measurements presented in this section are drawn from the supplement of paper PMC12042874.

Assay: amyloid nucleation score (Sup35N fusion, yeast selection) (log enrichment); library NNK1; higher = more nucleation; inactive = no reads after selection;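 note: zero at mode of non-aggregating sequences after 7 days selection at 30°C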
reportedMetric: amyloid nucleation score
Answer with the value's number alone.

Return reported amyloid nucleation score; argument: DLSWGSRHY -0.899

Return reported amyloid nucleation score; argument: GTCYFTDQR 0.491

Return reported amyloid nucleation score; argument: MMGGSRWTCCYTFDFWSCWD 4.27

Return reported amyloid nucleation score; argument: SDFLTWCDQSLRCVDRYPNA 0.648

Return reported amyloid nucleation score; argument: SHPFTFSCAHILLWMSLRRF 0.276

Return reported amyloid nucleation score; argument: FMPMNVSNKTSELRYFCNGP 0.417

Return reported amyloid nucleation score; argument: CVFYCRR 0.091

Return reported amyloid nucleation score; argument: LSRLRLSAAGSADRESLVVS 0.538

Return reported amyloid nucleation score; argument: MKIVNVHAWATQLARGDICE 0.745

Return reported amyloid nucleation score; argument: SDTRYGLFVNWRFWDRGSGW 0.238

Return reported amyloid nucleation score; argument: VPLGSDSNHNANVTCYFASA -0.078

Return reported amyloid nucleation score; argument: MTSLDFNYGISKLESSFYMY -0.739

Return reported amyloid nucleation score; argument: FEYFCRRDRLTK -0.209

Return reported amyloid nucleation score; argument: KTGTYWKSDGCVLWFGVKPA 0.32

Return reported amyloid nucleation score; argument: WFYKLSSLFYNPLCL -1.13

Return reported amyloid nucleation score; argument: MLPLCMSAIRRVKLRSPSEY 0.151

Return reported amyloid nucleation score; argument: YTANYGILVFAVC -0.702

Return reported amyloid nucleation score; argument: LHRSQMIFMCLSVTYSAK -0.209

Return reported amyloid nucleation score; argument: GSDMIVYIYRCTVTLMGSST 3.83

Return reported amyloid nucleation score; argument: GSSAFRINLFFLSIVGYRRS 5.61

Return reported amyloid nucleation score; argument: CRSSGADSRLLNIVKPCTLP -0.616

Return reported amyloid nucleation score; argument: IGDGSFYGLRQRQEARGKRA -0.437

Return reported amyloid nucleation score; argument: INNSDSCVMLMMNRVFCHGG 6.08

---

Assay: amyloid nucleation score (Sup35N fusion, yeast selection) (log enrichment); library NNK1; higher = more nucleation; inactive = no reads after selection
reportedMetric: amyloid nucleation score

Some solved entries appear below for comparison.
Return reported amyloid nucleation score; argument: CQSFIGTDTKFVIPDMVLAA inactive

Return reported amyloid nucleation score; argument: TLSSRSYC 0.402

Return reported amyloid nucleation score; argument: KGCAIGRRAINSCYQSGWIW 1.6

Return reported amyloid nucleation score; argument: IKYINDITFLVLPYWFI 3.6

Return reported amyloid nucleation score; argument: FFYLIISGMVMLSNPLSRVS inactive

Return reported amyloid nucleation score; argument: LYLVILVELMVYSKWCIKSP 0.414

Return reported amyloid nucleation score; argument: ANLLINGFLSRSRDNYACYR 1.56

Return reported amyloid nucleation score; argument: NSRKSAGHPSLESGSLLCYA -0.041

Return reported amyloid nucleation score; argument: PLLYLPNWLISCFYLLF 0.263

Return reported amyloid nucleation score; argument: RFVIVEVSWLDSLLRLSWED 0.277

New cases:
Return reported amyloid nucleation score; argument: SHPTNFSCIVVSARQGVKKI -0.148
